Consider the following compounds; for each one, report its EC50.
# tgt: E. coli SSB-Cy5-dT15 complex (Escherichia coli)
# Construct: purchased Promega
# Sequence (P0AGE0 2-178, one chain of several): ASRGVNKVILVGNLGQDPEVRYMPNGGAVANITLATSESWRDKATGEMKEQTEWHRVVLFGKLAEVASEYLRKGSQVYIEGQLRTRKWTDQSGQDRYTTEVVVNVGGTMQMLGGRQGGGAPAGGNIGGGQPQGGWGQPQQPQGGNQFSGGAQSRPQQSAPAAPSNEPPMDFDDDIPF
# assay-procedure: Escherichia coli SSB Cy5-dT15 binding assay (fluorescence polarization)
# condition-details: read-out: SSB EC50
Reply with just the number (in µM).

EC50 for Cc1ccc2nc(-c3ccc(NC(=O)c4ccc(NC(=O)OCC5c6ccccc6-c6ccccc65)cc4)cc3)sc2c1S(=O)(=O)O.N [Compound 42] ?
27

EC50 for Cc1ccc2nc(-c3ccc(NC(=O)c4ccc(NC(=O)c5ccccc5)cc4)cc3)sc2c1S(=O)(=O)O.N [Compound 40] ?
57

EC50 for Cc1ccc2nc(-c3ccc4nc(-c5ccc(NC(=O)c6ccc(CNC(=O)OCC7c8ccccc8-c8ccccc87)cc6)cc5)sc4c3)sc2c1S(=O)(=O)O.N [Compound 41] ?
57

EC50 for Cc1ccc2nc(-c3ccc4nc(-c5ccc(N(C)C(=O)c6ccc7ccccc7c6)cc5)sc4c3)sc2c1S(=O)(=O)O [Compound 34] ?
9

Measured values drawn from patent US9464064B2 for this set.
